assay comment: glucagon-like peptide 1 release enhancers, primary assay, NCI-H716 cell line, NPC library (AID 1117341); also: reference of the scale not given here
condition summary: NCI-H716 cells, at 10 µM
Activity calls are given as the source filed them.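 The calls were made as follows: active = compound raises GLP1 secretion from the human gut endocrine cells, with no numeric limit stated; inactive = the rest.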
Possible outcomes: YES = active, NO = inactive

>  <molecule>
O=S(c1cc(Cl)cc(Cl)c1O)c1cc(Cl)cc(Cl)c1O

>  <assigned category>
YES

$$$$
>  <molecule>
CCCc1ncc(C(=O)O)s1

>  <assigned category>
NO

$$$$
>  <molecule>
Cc1cccc(C)c1NC(=O)CN1CCCC1

>  <assigned category>
NO

$$$$
>  <molecule>
COC(=O)c1cccnc1

>  <assigned category>
NO

$$$$
>  <molecule>
CC(COc1ccccc1)N(CCCl)Cc1ccccc1 (stereo not drawn)

>  <assigned category>
NO

$$$$
>  <molecule>
CC(C)CCCC(C)CCCC(C)CCCCC(C)CCCC(C)CCCC(C)C (stereo not drawn)

>  <assigned category>
NO

$$$$
>  <molecule>
CCN(CC)CCSC(=O)C(c1ccccc1)c1ccccc1

>  <assigned category>
NO

$$$$
>  <molecule>
COc1cc(C(=S)N2CCOCC2)ccc1O

>  <assigned category>
NO

$$$$
>  <molecule>
C[C@@H]1O[C@@H](OC[C@H]2O[C@@H](Oc3c(-c4ccc(O)c(O)c4)oc4cc(O)cc(O)c4c3=O)[C@H](O)[C@@H](O)[C@@H]2O)[C@H](O)[C@H](O)[C@H]1O

>  <assigned category>
NO

$$$$
>  <molecule>
CN1N=C(C(N)=O)CCC1=O

>  <assigned category>
NO

$$$$
>  <molecule>
COc1ccc2cc(CCC(C)=O)ccc2c1

>  <assigned category>
NO

$$$$
>  <molecule>
C/C=C(/C(=C/C)c1ccc(OC(C)=O)cc1)c1ccc(OC(C)=O)cc1

>  <assigned category>
NO

$$$$
>  <molecule>
Cc1cccc(CN2CCN(C(c3ccccc3)c3ccc(Cl)cc3)CC2)c1 (stereo not drawn)

>  <assigned category>
NO

$$$$
>  <molecule>
O=C(c1ccco1)N1CCNCC1

>  <assigned category>
NO

$$$$
>  <molecule>
O=C1CCC(=O)N1CO

>  <assigned category>
NO

$$$$
>  <molecule>
CC1=C(CC(=O)O)c2cc(F)ccc2/C1=C\c1ccc(S(C)=O)cc1 (stereo not drawn)

>  <assigned category>
NO

$$$$
>  <molecule>
O=C(O)C(Cc1cc(I)c(O)c(I)c1)c1ccccc1 (stereo not drawn)

>  <assigned category>
NO

$$$$
>  <molecule>
CN(C)CCCN1c2ccccc2CCc2ccc(Cl)cc21

>  <assigned category>
NO

$$$$
>  <molecule>
O=C(O)c1ccccc1Nc1cc(Cl)ccc1C(=O)O

>  <assigned category>
NO

$$$$
>  <molecule>
CC(=O)S[C@@H]1CC2=CC(=O)CC[C@]2(C)[C@H]2CC[C@@]3(C)[C@@H](CC[C@@]34CCC(=O)O4)[C@H]12

>  <assigned category>
NO

$$$$
>  <molecule>
CCOC(=O)c1cc(=O)c2c(OCC(COc3cccc4oc(C(=O)OCC)cc(=O)c34)OC(=O)[C@@H](N)CCCCN)cccc2o1

>  <assigned category>
NO

$$$$
>  <molecule>
CCCCCCCCCCCCCCCCCCN(C)C

>  <assigned category>
NO

$$$$
>  <molecule>
O=C(OCC(COC(=O)c1cccnc1)(COC(=O)c1cccnc1)COC(=O)c1cccnc1)c1cccnc1

>  <assigned category>
NO

$$$$
